Kd for assorted compounds
# target_or_system: human recombinant ApoE3 (Homo sapiens, UniProt P02649)
# Sequence (P02649 19-317): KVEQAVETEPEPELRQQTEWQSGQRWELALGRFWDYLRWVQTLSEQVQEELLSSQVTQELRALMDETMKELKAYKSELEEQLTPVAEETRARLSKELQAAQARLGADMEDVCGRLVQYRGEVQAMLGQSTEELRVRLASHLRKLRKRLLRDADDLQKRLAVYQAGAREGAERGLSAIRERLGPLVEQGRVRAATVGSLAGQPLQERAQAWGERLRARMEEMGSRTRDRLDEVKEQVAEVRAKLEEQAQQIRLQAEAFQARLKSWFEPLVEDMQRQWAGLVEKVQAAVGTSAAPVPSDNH
# measurement_notes: Surface plasmon resonance (SPR) binding, ApoE3
# recorded_conditions: Biacore T200

Solved cases below.
CC(C)=CCc1c(-c2ccc(O)cc2O)oc2c(CC=C(C)C)c(O)cc(O)c2c1=O
> 100 µM
CC(C)=CCc1cc([C@@H]2CC(=O)c3ccc(O)c(CC=C(C)C)c3O2)ccc1O
> 100 µM
O=c1c(-c2ccc(O)cc2)coc2cc(O)ccc12
> 100 µM
CC(C)=CCc1c(-c2ccc(O)cc2O)oc2c3c(cc(O)c2c1=O)OC(C)(C)C=C3
> 100 µM

The recorded Kd for Oc1ccc(C2=Cc3ccc(O)cc3OC2)cc1 is > 100 µM

// recorded Kd for O=c1c(-c2ccc(O)cc2)coc2cc(O)cc(O)c12 : > 100 µM

The recorded Kd for COc1cc(O)c(CC=C(C)C)c2c1C(=O)CC(c1ccc(O)cc1)O2 (centres unmarked) is 38 µM

So for CC(C)=CCc1cc2c(cc1O)O[C@H](c1ccc(O)cc1)CC2=O , the logged Kd turned out to be 59 µM

Taken from paper PMC11858207.
